This collection of values is drawn from patent US20070219162A1.

Each entry below carries its recorded Specific Gravity.
TEST METHOD NOTES: Specific gravity of tamponading agents
Assay type: physicochemical
CONDITION DESCRIPTION: Table 1
Answer field: number only, no words.

Solved cases (3 shown):
Fc1c(F)c(F)c2c(c1F)c(F)c(F)c1c(F)c(F)c(F)c(F)c12	2.03
FC(F)(F)C(F)(F)C(F)(F)C(F)(F)C(F)(F)C(F)(F)C(F)(F)C(F)(F)F	1.76
FC(F)(F)C(F)(F)CCCOCCCC(F)(F)C(F)(F)F	1.31

The record that follows has no Specific Gravity shown yet.
Lookup: Endpoint output: Specific Gravity of FC1(F)C(F)(F)C(F)(F)C2(F)C(F)(F)C(F)(F)C(F)(F)C(F)(F)C2(F)C1(F)F (stereo not shown) . Value?
Found: 1.94
